Examples of sequences with documented protein stability index follow.
Test system: Saccharomyces cerevisiae
Test Name: protein stability index of tFT-peptide fusion in wild type (PSI (0-1 scale)); higher = more stable (slower turnover)
Setup Conditions: genetic background: wild type
Attribute Measured: protein stability index

1) LKILRQKMMHQN; 0.232
2) KKHWKGQKQKIN; 0.112
3) FSMRWTFRPWVN; 0.245
4) PDKRNHDIKLLN; 0.407
5) RVTRLDAIYARI; 0.684
6) AITLPMCPLLHR; 0.628
7) LKILQQKMNHQN; 0.163
8) CTSCGCKFRTNN; 0.543
9) FSMCWTFRYWVN; 0.0491
10) CTSCGYKFRTNNK; 0.669
11) CTTCGYKFRTNN; 0.267
12) KKHKKVQKQKIN; 0.165
13) AITYPMCPLLLR; 0.287
14) FSMRWTFRYWVNG; 0.431
15) CLVSLPILLFFY; 0.232
16) LVMYLSCVACIN; 0.0125
17) CTSCGYKFHTNN; 0.429
18) GLYMCSVTCWFR; 0.265
19) KKHKKGQKQKHN; 0.439
20) RLIQPLPVQSLN; 0.457
21) LSLAASFWRVVG; 0.129
22) WDKRNHLIKLLN; 0.113
23) CTSCGYKFSTNN; 0.684
24) FSMRKTFRYWVN; 0.0767
25) LVVYLSCSACIN; 0.0177
26) RSLRVLLPLYHR; 0.626
27) PDKRCHLIKLLN; 0.0642
28) DITLPMCPLLLR; 0.39
29) RVTRLDAIFFRI; 0.364
30) CESCGYKFRTNN; 0.327
31) FSMPWTFRYWVN; 0.11

* * *

Examples of sequences with documented protein stability index follow.
System: Saccharomyces cerevisiae
Test Name: protein stability index of tFT-peptide fusion (C-terminal peptide) (PSI (0-1 scale)); higher = more stable (slower turnover)
Setup Conditions: genetic background: wild type; temperature: 30 C
Attribute Measured: protein stability index

1. PMHVLTKLCDGV; 0.689
2. LLGRIASCKIWL; 0.657
3. RVRGGGPRESGQ; 0.728
4. PPFSLVTGLPCP; 0.71
5. PPPGPPPPPPYP; 0.656
6. SPPWGQGSVSSK; 0.729
7. PNLRPPSPPSLL; 0.714
8. TLTPPPSTSLPP; 0.645
9. VGVRCCPRLRFG; 0.695
10. LLLPPLSSSPPP; 0.711
11. ILRGRDLPHGLG; 0.688
12. CCISCSVCKDGS; 0.618

* * *

Test system: Saccharomyces cerevisiae
Test Name: protein stability index of tFT-peptide fusion (C-terminal peptide) (PSI (0-1 scale)); higher = more stable (slower turnover)
Setup Conditions: genetic background: das1 deletion; temperature: 30 C
Examples of sequences with documented protein stability index follow.
Attribute Measured: protein stability index

1. VEIFVDKLIDFL [THI80 C-terminal 12 aa]; 0.674
2. WARRSFSSYDLC [GID11 C-terminal 12 aa]; 0.705
3. LLQSGRYGGNRS [RCI37 C-terminal 12 aa]; 0.683
4. EMKHSLFRNPFH [PIG2 C-terminal 12 aa]; 0.705

* * *

System: Saccharomyces cerevisiae
Test Name: protein stability index of tFT-peptide fusion (C-terminal peptide) (PSI (0-1 scale)); higher = more stable (slower turnover)
Setup Conditions: genetic background: wild type; temperature: 30 C
Examples of sequences with documented protein stability index follow.
Attribute Measured: protein stability index

1) VRINNIGKRVNR; 0.706
2) LLPLPPPPLFLP; 0.705
3) PPSTRPYRLFPL; 0.682
4) SPRLHFPPRHPC; 0.717
5) AVFSWVTAGQCD; 0.684
6) TPWIRGRTHPGR; 0.705
7) SWSVSVNMVGQS; 0.683
8) LHPGPPASPPPL; 0.713
9) QVPDPSVNQPPS; 0.699
10) QRSEHGAHPTEP; 0.701
11) PCSVPHSGSAPA; 0.712
12) ARSGDSGQPPSQ; 0.689
13) GGGGEDQSQGPP; 0.69
14) SREKRKEEQTQK; 0.717
15) TFNRIFGNALPG; 0.688
16) GAGVEIGKSRYR; 0.716
17) IMGIIKFKSYRI; 0.703
18) CPSAPHNTLSTG; 0.68
19) PFPPRLPSPATP; 0.691
20) RDCVVSCSCIHI; 0.694
21) DNKDRFRMFRVG; 0.695
22) RCFGPPSRLAYF; 0.683
23) PPLPPSSMPPSH; 0.685
24) PLPFPSTPPPPD; 0.691
25) TGYDERSRFIEI; 0.68
26) HLFVPGAFFFFS; 0.718
27) EGAGSAPCMVQG; 0.68
28) DRSRATRSPHIN; 0.703

* * *

Examples of sequences with documented protein stability index follow.
Test system: Saccharomyces cerevisiae
Test Name: protein stability index of tFT-peptide fusion (C-terminal peptide) (PSI (0-1 scale)); higher = more stable (slower turnover)
Setup Conditions: genetic background: wild type; temperature: 30 C
Attribute Measured: protein stability index

1) GQWCGRLLRSGS; 0.685
2) CTFSGSHGSFPS; 0.717
3) PLSGFSSPSFFP; 0.693
4) LLPPLPLSPSAP; 0.685
5) LPAPPAPLTFPG; 0.687
6) QNKKNKNKKKKE; 0.706
7) PALPFAPPPLPP; 0.685

* * *

System: Saccharomyces cerevisiae
Test Name: protein stability index of tFT-peptide fusion (C-terminal peptide) (PSI (0-1 scale)); higher = more stable (slower turnover)
Setup Conditions: genetic background: wild type; temperature: 30 C
Attribute Measured: protein stability index

1. NRQDASAPVCLL; 0.719
2. PLLPPPPPPPPT; 0.718
3. SLPPLASPPASI; 0.72
4. VRGSLGQGNDTA; 0.706
5. SFFLMTPPPSLR; 0.698
6. SVCVLGPLDGSC; 0.701
7. WGGGGGWSGACL; 0.691
8. TRGDCFAVRKAR; 0.702

* * *

Test system: Saccharomyces cerevisiae
Test Name: protein stability index of tFT-peptide fusion (C-terminal peptide) (PSI (0-1 scale)); higher = more stable (slower turnover)
Setup Conditions: genetic background: cdc34-1; temperature: 37 C
Examples of sequences with documented protein stability index follow.
Attribute Measured: protein stability index

1) RLLSIFKILHVG; 0.526
2) IIIGTLLYVNVR; 0.279
3) LSRRFSLALFWT; 0.57
4) GGYCQMFFLYFR; 0.0593
5) CRLRYSILWFRL; 0.104

* * *

Examples of sequences with documented protein stability index follow.
System: Saccharomyces cerevisiae
Test Name: protein stability index of tFT-peptide fusion (C-terminal peptide) (PSI (0-1 scale)); higher = more stable (slower turnover)
Setup Conditions: genetic background: wild type; temperature: 30 C
Attribute Measured: protein stability index

1. PSGGAVEGMGGE; 0.668
2. PSLLSPTPPTTD; 0.711
3. GEEGAWSRQGPP; 0.658
4. QKTLKPEQVAEH; 0.68
5. KKEKRQQEKIIK; 0.671
6. IVLLSLSCRSPG; 0.594
7. LSACYSRYVFVS; 0.135
8. MNRTDPSRDEKP; 0.804
9. CVCPFCVWVSCL; 0.433
10. FSSSPGRSFRTV; 0.726
11. TVRIGKYTGNGV; 0.738

* * *

System: Saccharomyces cerevisiae
Test Name: protein stability index of tFT-peptide fusion (C-terminal peptide) (PSI (0-1 scale)); higher = more stable (slower turnover)
Setup Conditions: genetic background: wild type; temperature: 30 C
Attribute Measured: protein stability index

1) VCPCCPYVMIAG; 0.336
2) NVWCWGASCFFC; 0.36
3) FFVWLGWGMFYG; 0.437

* * *

Examples of sequences with documented protein stability index follow.
Tested on: Saccharomyces cerevisiae
Test Name: protein stability index of tFT-peptide fusion (C-terminal peptide) (PSI (0-1 scale)); higher = more stable (slower turnover)
Setup Conditions: genetic background: wild type; temperature: 30 C
Attribute Measured: protein stability index

1. NSGSRGTRVVGL; 0.705
2. GQKRKKKGGKEE; 0.685
3. SLQTHCHKGPLS; 0.718
4. TPSDHRRLRGSN; 0.689
5. RKKIIRDKLNTS; 0.709
6. QKTVRDIRIAAL; 0.591
7. ADGLSRDKALIV; 0.598
8. SGSITAGLVRNV; 0.615
9. GVLVAFLWGESV; 0.593
10. KNKKKNQIENRT; 0.692
11. AVAETCEQAGRG; 0.675
12. VWLGEYGVGCSV; 0.655
13. KTINEKKKRIEQ; 0.713
14. IQICLNRLRLFH; 0.436
15. RHYGVTSLISLQ; 0.674
16. VGGGGRFWVCVG; 0.406
17. SFLHSRAELPAG; 0.604
18. LPFFFPRLFSPP; 0.691
19. AGCGGRCEAGDR; 0.67
20. GAKCLFVSGGGI; 0.68
21. LPPVLPLLPSPP; 0.692
22. GLGTRLSAVVLS; 0.625
23. VGRGWSSGGGGD; 0.682
24. RKSSLVARTGMI; 0.623
25. ADQAPVLTVWLP; 0.669
26. IACVLSIFLNAA; 0.44
27. GISKHGAITSRI; 0.725
28. LSGVYPQACSRL; 0.734
29. VTMTPSLCFSYS; 0.464
30. LDSGQALLSIPI; 0.643
31. ILFSSDLNSFSW; 0.744
32. VARVVGGVGGGW; 0.655
33. VLKRYILRNEKD; 0.697
34. RGVGWVLEVLLG; 0.518
35. PPPLPPAPPPFP; 0.698
36. PPLPPRSPSAPL; 0.695
37. GEVAQDLGRDIL; 0.712
38. RRWGLIGVMSYL; 0.732
39. NVWCWGASCFFC; 0.447
40. EIKNKENKLKKT; 0.684
41. PPPSSELTFLHY; 0.797
42. GVSVGGSSGGSG; 0.687
43. GYVHPSWLWANT; 0.732
44. VGAVRVAVGVGG; 0.566
45. HPPRPPLPRPRL; 0.778
46. RRRNSTFTNLDT; 0.678
47. WCWVGRFVGLVR; 0.447
48. DLLKAILKIKSL; 0.171
49. PPPDYPPTPAPS; 0.715
50. FVLLTFLFFWQF; 0.328
51. APIRPPVPPASP; 0.716
